- System Name: TRB3 (Homo sapiens)
- Assay Name: Surface plasmon resonance binding of peptides to immobilized TRB3
- Assay Setup: SPR, BIAcore T200, peptide passed over TRB3 immobilized on CM5 sensor chip; alanine scan of A2, Fig. 6f; read-out: KD
Where no end group is shown, it is not given here.
The following sequences are listed with their measured pKd values.
Please keep in mind that pKd is minus log10 of the molar concentration; only the number is needed.

item_sequence="GGWLTALLQTK [M6]" experimental_value=9.85
item_sequence="GGWLARLLQTK [M5]" experimental_value=6.96

Let us examine a further case.
**Query** // returns reported pKd for input GGWLTRALQTK [M7]
**Result** 4.93

----------
- System Name: TRB3 (Homo sapiens, UniProt Q96RU7)
- Sequence (Q96RU7 whole entry): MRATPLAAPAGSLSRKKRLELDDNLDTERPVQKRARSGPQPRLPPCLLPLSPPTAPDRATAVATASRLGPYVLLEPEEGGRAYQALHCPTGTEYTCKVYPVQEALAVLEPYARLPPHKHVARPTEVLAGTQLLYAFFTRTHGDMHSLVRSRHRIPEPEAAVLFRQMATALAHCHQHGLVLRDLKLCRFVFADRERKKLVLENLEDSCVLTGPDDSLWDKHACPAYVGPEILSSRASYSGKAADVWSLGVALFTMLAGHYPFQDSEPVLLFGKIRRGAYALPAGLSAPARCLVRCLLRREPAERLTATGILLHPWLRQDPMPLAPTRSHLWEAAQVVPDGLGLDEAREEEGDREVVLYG
- Assay Name: Surface plasmon resonance binding of peptides to immobilized TRB3
pKd: −log10 of the molar value. Where no end group is shown, it is not given here.
Given measured pKd, output rule met if it is greater than or equal to 6 and rule not met if not.

Please review the entries below; each comes with its answer.
item_sequence="GGWLTRLLQAK [M10]" system_name="TRB3 (Homo sapiens, UniProt Q96RU7)" label_value="rule met"
item_sequence="GGALTRLLQTK [M3]" system_name="TRB3 (Homo sapiens, UniProt Q96RU7)" label_value="rule not met"
item_sequence="GAWLTRLLQTK [M2]" system_name="TRB3 (Homo sapiens, UniProt Q96RU7)" label_value="rule met"
item_sequence="GGWATRLLQTK [M4]" system_name="TRB3 (Homo sapiens, UniProt Q96RU7)" label_value="rule not met"
item_sequence="AGWLTRLLQTK [M1]" system_name="TRB3 (Homo sapiens, UniProt Q96RU7)" label_value="rule not met"

**Query** In plain terms: is recorded pKd at least 6 for GGWLTRLLQTA [M11] ?
**Result** rule met

**Query** # check: pKd of GGWLTRLLATK [M9] is greater than or equal to 6
**Result** rule not met

Source: paper PMC4557121
